target_under_test: hERG (KCNH2) (Homo sapiens, UniProt Q12809)
Sequence (Q12809 whole entry): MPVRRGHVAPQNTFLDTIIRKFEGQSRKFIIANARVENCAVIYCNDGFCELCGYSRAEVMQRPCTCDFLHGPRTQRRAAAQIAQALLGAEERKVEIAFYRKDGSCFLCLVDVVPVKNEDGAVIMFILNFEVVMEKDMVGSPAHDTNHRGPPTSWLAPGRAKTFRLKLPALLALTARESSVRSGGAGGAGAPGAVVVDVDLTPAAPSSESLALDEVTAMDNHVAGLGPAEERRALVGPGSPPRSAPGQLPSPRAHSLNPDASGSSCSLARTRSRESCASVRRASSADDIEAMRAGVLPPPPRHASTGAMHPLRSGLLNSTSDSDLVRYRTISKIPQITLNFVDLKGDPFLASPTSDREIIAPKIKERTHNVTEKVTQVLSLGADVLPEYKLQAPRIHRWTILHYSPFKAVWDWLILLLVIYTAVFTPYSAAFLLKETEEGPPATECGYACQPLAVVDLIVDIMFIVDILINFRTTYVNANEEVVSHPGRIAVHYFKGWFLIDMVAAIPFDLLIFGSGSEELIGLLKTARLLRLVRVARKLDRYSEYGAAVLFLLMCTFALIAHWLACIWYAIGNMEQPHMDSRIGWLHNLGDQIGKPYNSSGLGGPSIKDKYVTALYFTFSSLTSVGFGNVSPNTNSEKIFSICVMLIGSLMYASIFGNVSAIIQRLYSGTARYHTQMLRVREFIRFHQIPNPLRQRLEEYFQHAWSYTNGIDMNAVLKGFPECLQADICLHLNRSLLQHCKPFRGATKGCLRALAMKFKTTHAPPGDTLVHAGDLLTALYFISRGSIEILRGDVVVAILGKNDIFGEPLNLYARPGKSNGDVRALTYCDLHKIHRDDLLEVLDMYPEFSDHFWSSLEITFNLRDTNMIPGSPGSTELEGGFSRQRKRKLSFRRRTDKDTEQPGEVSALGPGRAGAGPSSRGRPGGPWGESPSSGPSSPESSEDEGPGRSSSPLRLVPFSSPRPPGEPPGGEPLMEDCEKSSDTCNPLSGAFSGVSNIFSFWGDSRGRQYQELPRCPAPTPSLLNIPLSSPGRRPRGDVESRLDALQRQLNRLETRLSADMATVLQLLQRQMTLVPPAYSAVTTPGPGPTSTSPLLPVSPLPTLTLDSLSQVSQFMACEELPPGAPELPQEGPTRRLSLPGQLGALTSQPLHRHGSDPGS
assay_procedure: Inhibition of human ERG at 10 uM by patch clamp assay
property: inhibition at 10 µM
Write down the value, and be sure its unit follows.

Reported inhibition at 10 µM for O=C(O)C1CN(Cc2ccc(-c3noc(-c4onc(-c5ccccn5)c4C(F)(F)F)n3)cc2)C1 was 13%

###

target_under_test: Cytochrome P450 3A4 (Homo sapiens)
Sequence (P08684 whole entry): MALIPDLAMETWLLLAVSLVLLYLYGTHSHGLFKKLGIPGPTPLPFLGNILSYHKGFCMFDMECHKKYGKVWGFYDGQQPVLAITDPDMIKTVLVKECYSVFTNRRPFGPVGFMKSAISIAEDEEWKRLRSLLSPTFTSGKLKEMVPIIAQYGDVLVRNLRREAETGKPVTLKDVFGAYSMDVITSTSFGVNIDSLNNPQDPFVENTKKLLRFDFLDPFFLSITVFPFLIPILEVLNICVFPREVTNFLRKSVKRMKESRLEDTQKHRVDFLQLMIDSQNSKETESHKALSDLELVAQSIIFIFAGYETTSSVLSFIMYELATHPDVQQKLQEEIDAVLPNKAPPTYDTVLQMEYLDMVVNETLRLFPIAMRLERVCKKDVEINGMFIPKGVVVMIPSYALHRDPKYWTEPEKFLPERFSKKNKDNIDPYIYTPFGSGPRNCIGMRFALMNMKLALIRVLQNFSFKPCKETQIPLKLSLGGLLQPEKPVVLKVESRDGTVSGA
pIC50: −log10 of the molar value.
property: pIC50

Observed pIC50 on Cytochrome P450 3A4 (Homo sapiens), entry O=C(O)C1CN(Cc2ccc(-c3noc(-c4onc(-c5ccccn5)c4C(F)(F)F)n3)cc2)C1 , equals < 4.40
